Molecular target: D(1A) dopamine receptor (Homo sapiens, UniProt P21728); further: assay procedure not described here
Sequence (P21728 whole entry): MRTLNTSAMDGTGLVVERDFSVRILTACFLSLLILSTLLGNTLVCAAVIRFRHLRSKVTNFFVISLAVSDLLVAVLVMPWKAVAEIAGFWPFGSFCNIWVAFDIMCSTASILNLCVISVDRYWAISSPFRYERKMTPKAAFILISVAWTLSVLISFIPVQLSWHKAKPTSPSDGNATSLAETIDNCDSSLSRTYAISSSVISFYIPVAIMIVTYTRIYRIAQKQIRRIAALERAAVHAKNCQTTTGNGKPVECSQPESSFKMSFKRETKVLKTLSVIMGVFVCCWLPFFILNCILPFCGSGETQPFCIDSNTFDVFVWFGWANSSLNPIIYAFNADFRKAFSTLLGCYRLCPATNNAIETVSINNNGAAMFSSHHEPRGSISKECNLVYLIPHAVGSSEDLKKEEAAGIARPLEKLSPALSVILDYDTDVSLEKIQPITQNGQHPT
Type: functional, cell-based
measured-endpoint: AC50

molecule=CCOC(=O)C1=C(C)NC(C)=C(C(=O)OCC)C1c1ccccc1/C=C/C(=O)OC(C)(C)C data_value="> 30 µM"
molecule=CC(=O)[C@H]1CC[C@H]2[C@@H]3C[C@H](C)C4=CC(=O)CC[C@]4(C)[C@H]3[C@@H](O)C[C@]12C data_value="> 10 µM"
molecule=CC(C)Cc1ccc([C@H](C)C(=O)O)cc1 data_value="> 30 µM"
molecule=C=C1c2cccc(O)c2C(=O)C2=C(O)[C@]3(O)C(=O)C(C(N)=O)=C(O)[C@@H](N(C)C)[C@@H]3[C@@H](O)[C@H]12 data_value="> 10 µM"
molecule=CCOC(=O)[C@@H](N)Cc1ccc(-c2cc(O[C@H](c3ccc(Cl)cc3-n3ccc(C)n3)C(F)(F)F)nc(N)n2)cc1 data_value="> 30 µM"
molecule=CNC(=C[N+](=O)[O-])NCCSCc1csc(CN(C)C)n1 data_value="> 10 µM"
molecule=CN(C)CCCN1c2ccccc2CCc2ccccc21 data_value="> 10 µM"
molecule="CC(C(=O)O)c1ccc2c(c1)CC(=O)c1ccccc1S2 (stereo unspecified)" data_value="> 30 µM"
molecule=O=C(O)c1cccnc1Nc1cccc(C(F)(F)F)c1 data_value="> 10 µM"
molecule=CC[C@H](C)C(=O)O[C@H]1C[C@@H](C)C=C2C=C[C@H](C)[C@H](CC[C@@H]3C[C@@H](O)CC(=O)O3)[C@H]21 data_value="> 10 µM"
molecule=O=C(NCCO[N+](=O)[O-])c1cccnc1 data_value="> 30 µM"
molecule="CCCNC(=O)NS(=O)(=O)c1ccc(Cl)cc1 [CHLORPROPAMIDE]" data_value="> 10 µM"
molecule=S=P(N1CC1)(N1CC1)N1CC1 data_value="> 30 µM"
molecule=COc1cc2[nH]c(C)c(CCN3CCN(c4ccccc4)CC3)c2cc1OC data_value="> 30 µM"
molecule=CN(C)C/C=C/C(=O)Nc1cc2c(Nc3ccc(F)c(Cl)c3)ncnc2cc1O[C@H]1CCOC1 data_value="> 30 µM"
molecule="CCCC(C)(COC(N)=O)COC(N)=O [MEPROBAMATE]" data_value="> 10 µM"
molecule="CC(Cc1cccc(C(F)(F)F)c1)NCCOC(=O)c1ccccc1 (stereo unspecified)" data_value="> 30 µM"
molecule=COc1cc(C(=O)NS(=O)(=O)c2ccccc2C)ccc1Cc1cn(C)c2ccc(NC(=O)OC3CCCC3)cc12 data_value="> 10 µM"
molecule=CN1CCN=C(c2ccccc2)c2cc(Cl)ccc21 data_value="> 30 µM"
molecule=CC1=C(/C=C/C(C)=C/C=C/C(C)=C/CO)C(C)(C)CCC1 data_value="> 10 µM"
molecule="NC(=O)NC(=O)Cc1ccccc1 [PHENACEMIDE]" data_value="> 10 µM"
molecule="Clc1ccc(CCC(Cn2ccnc2)Sc2c(Cl)cccc2Cl)cc1 (stereo unspecified)" data_value="> 30 µM"
molecule=OC[C@H]1O[C@@H](Oc2cc(O)cc(/C=C/c3ccc(O)cc3)c2)[C@H](O)[C@@H](O)[C@@H]1O data_value="> 30 µM"
molecule="CC(CN(C)C)C(C)(O)Cc1ccc(Cl)cc1 (stereo unspecified)" data_value="> 10 µM"
molecule="CC(C(=O)O)c1ccc2oc(-c3ccc(Cl)cc3)nc2c1 (stereo unspecified)" data_value="> 30 µM"
molecule=CC(C)(O/N=C(\C(=O)N[C@@H]1C(=O)N2C(C(=O)[O-])=C(C[n+]3ccccc3)CS[C@H]12)c1csc(N)n1)C(=O)O data_value="> 300 µM"
molecule="Cc1cc(=O)n(-c2ccccc2)n1C [ANTIPYRINE]" data_value="> 10 µM"
molecule=CC/C=C\C/C=C\C/C=C\C/C=C\C/C=C\CCCC(=O)OCC data_value="> 30 µM"
molecule="CCC(NC(C)C)C(O)c1ccc(O)c2[nH]c(=O)ccc12 (stereo unspecified)" data_value="> 30 µM"
molecule="O=C(O)CCNC(=O)c1ccc(/N=N/c2ccc(O)c(C(=O)O)c2)cc1 [BALSALAZIDE]" data_value="> 30 µM"
molecule=Cn1cc(C(=O)[C@@H]2CCc3nc[nH]c3C2)c2ccccc21 data_value="> 30 µM"
molecule=C[N+]1(C)CCC(=C(c2ccccc2)c2ccccc2)CC1 data_value="> 10 µM"
molecule="Cc1cccc(C)c1NC(=O)CC12CCCN1CCC2 [PILSICAINIDE]" data_value="> 30 µM"
molecule=CCOc1nc2cccc(C(=O)O)c2n1Cc1ccc(-c2ccccc2-c2nnn[nH]2)cc1 data_value="> 30 µM"
molecule=C[C@]12C/C(=C/O)C(=O)C[C@@H]1CC[C@@H]1[C@@H]2CC[C@@]2(C)[C@H]1CC[C@]2(C)O data_value="> 30 µM"
molecule=CCCc1nc2c(C)cc(-c3nc4ccccc4n3C)cc2n1Cc1ccc(-c2ccccc2C(=O)O)cc1 data_value="> 30 µM"

* * *

Let's go through some AC50 measurements on Vasopressin V1a receptor (Homo sapiens) together.
Sequence (P37288 whole entry): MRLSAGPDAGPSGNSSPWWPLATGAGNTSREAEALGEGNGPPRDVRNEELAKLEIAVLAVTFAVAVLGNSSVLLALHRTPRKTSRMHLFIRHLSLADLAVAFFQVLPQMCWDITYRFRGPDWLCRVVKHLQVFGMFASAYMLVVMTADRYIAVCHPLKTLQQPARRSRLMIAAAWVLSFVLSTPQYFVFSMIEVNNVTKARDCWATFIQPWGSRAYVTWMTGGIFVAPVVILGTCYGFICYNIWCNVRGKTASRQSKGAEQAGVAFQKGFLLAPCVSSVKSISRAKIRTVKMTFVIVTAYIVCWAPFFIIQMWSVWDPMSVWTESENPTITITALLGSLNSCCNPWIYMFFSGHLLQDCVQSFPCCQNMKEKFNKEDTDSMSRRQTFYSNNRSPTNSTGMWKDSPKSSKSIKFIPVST
measured-endpoint: AC50

compound=CCOC(=O)c1c(CSc2ccccc2)n(C)c2cc(Br)c(O)c(CN(C)C)c12 target_desc="Vasopressin V1a receptor (Homo sapiens)" measured_endpoint=AC50 data_value="> 30 µM"
compound=O=C1c2ccccc2C(=O)C1c1ccccc1 target_desc="Vasopressin V1a receptor (Homo sapiens)" measured_endpoint=AC50 data_value="> 10 µM"
compound=O=C(O)Cc1ccccc1Nc1c(Cl)cccc1Cl target_desc="Vasopressin V1a receptor (Homo sapiens)" measured_endpoint=AC50 data_value="> 30 µM"
compound="COc1cc(N)c(Cl)cc1C(=O)NC1CCN(CCCOc2ccc(F)cc2)CC1OC (stereo not drawn) [CISAPRIDE]" target_desc="Vasopressin V1a receptor (Homo sapiens)" measured_endpoint=AC50 data_value="> 30 µM"
compound="O=c1[nH]c2ccccc2n1CCCN1CCN(C(c2ccccc2)c2ccccc2)CC1 [OXATOMIDE]" target_desc="Vasopressin V1a receptor (Homo sapiens)" measured_endpoint=AC50 data_value="22 µM"
compound="COC(=O)C1=C(C)NC(C)=C(C(=O)OCCN2CCN(C(c3ccccc3)c3ccccc3)CC2)C1c1cccc([N+](=O)[O-])c1 (stereo not drawn)" target_desc="Vasopressin V1a receptor (Homo sapiens)" measured_endpoint=AC50 data_value="> 30 µM"
compound="CC(C)(C)NCC(O)c1ccccc1Cl (stereo not drawn)" target_desc="Vasopressin V1a receptor (Homo sapiens)" measured_endpoint=AC50 data_value="> 30 µM"
compound=COC(=O)[C@H]1[C@H]2C[C@@H]3c4[nH]c5cc(OC)ccc5c4CCN3C[C@H]2C[C@@H](OC(=O)c2cc(OC)c(OC)c(OC)c2)[C@@H]1OC target_desc="Vasopressin V1a receptor (Homo sapiens)" measured_endpoint=AC50 data_value="> 10 µM"
compound=CCOc1nc2cccc(C(=O)O)c2n1Cc1ccc(-c2ccccc2-c2nnn[nH]2)cc1 target_desc="Vasopressin V1a receptor (Homo sapiens)" measured_endpoint=AC50 data_value="> 30 µM"
compound="CC(CN1c2ccccc2Sc2ccccc21)N(C)C (stereo not drawn)" target_desc="Vasopressin V1a receptor (Homo sapiens)" measured_endpoint=AC50 data_value="> 10 µM"
compound="CCCNC(=O)NS(=O)(=O)c1ccc(Cl)cc1 [CHLORPROPAMIDE]" target_desc="Vasopressin V1a receptor (Homo sapiens)" measured_endpoint=AC50 data_value="> 30 µM"
compound=CCCN1CCCC[C@H]1C(=O)Nc1c(C)cccc1C target_desc="Vasopressin V1a receptor (Homo sapiens)" measured_endpoint=AC50 data_value="> 30 µM"
compound="O=C(O)c1ccc(NC(=O)[C@H](Cc2ccc(O)cc2)NC(=O)c2ccccc2)cc1 [BENTIROMIDE]" target_desc="Vasopressin V1a receptor (Homo sapiens)" measured_endpoint=AC50 data_value="> 10 µM"
compound=CCC(=O)O[C@](Cc1ccccc1)(c1ccccc1)[C@H](C)CN(C)C target_desc="Vasopressin V1a receptor (Homo sapiens)" measured_endpoint=AC50 data_value="> 10 µM"
compound=O=C(/C=C/c1cccc(S(=O)(=O)Nc2ccccc2)c1)NO target_desc="Vasopressin V1a receptor (Homo sapiens)" measured_endpoint=AC50 data_value="> 10 µM"
compound=C[N+]1(C)CCC(=C(c2ccccc2)c2ccccc2)CC1 target_desc="Vasopressin V1a receptor (Homo sapiens)" measured_endpoint=AC50 data_value="> 30 µM"
compound=Cc1ccnc2c1NC(=O)c1cccnc1N2C1CC1 target_desc="Vasopressin V1a receptor (Homo sapiens)" measured_endpoint=AC50 data_value="> 10 µM"
compound="Cn1c(=O)c2c(ncn2CCOC(=O)C(C)(C)Oc2ccc(Cl)cc2)n(C)c1=O [THEOFIBRATE]" target_desc="Vasopressin V1a receptor (Homo sapiens)" measured_endpoint=AC50 data_value="> 30 µM"

* * *

Reported AC50 values follow for various molecules
Molecular target: Alpha-1A adrenergic receptor (Homo sapiens, UniProt P35348); further: assay procedure not described here
Sequence (P35348 whole entry): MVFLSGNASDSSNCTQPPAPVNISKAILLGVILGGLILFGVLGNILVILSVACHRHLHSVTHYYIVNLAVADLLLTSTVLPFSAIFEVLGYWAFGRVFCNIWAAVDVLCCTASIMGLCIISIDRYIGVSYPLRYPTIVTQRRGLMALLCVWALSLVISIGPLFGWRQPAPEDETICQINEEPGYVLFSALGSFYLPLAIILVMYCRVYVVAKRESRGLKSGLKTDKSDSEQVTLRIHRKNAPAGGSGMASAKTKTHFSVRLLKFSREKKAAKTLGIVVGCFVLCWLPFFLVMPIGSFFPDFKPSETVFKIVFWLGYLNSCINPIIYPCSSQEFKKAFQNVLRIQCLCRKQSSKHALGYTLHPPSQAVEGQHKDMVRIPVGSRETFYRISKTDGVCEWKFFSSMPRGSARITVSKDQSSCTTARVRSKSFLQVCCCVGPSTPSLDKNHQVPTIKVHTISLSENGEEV
Assay type: functional, cell-based
measured-endpoint: AC50

molecule="CC(=O)O[C@H]1Cc2ccccc2N(C(N)=O)c2ccccc21 [ESLICARBAZEPINE ACETATE]" measured_endpoint=AC50 data_value="> 30 µM"
molecule="CCN(CC)CCCC(C)Nc1c2ccc(Cl)cc2nc2ccc(OC)cc12 (stereo not drawn)" measured_endpoint=AC50 data_value="> 1 µM"
molecule=CC[C@@H]1C[C@]1(NC(=O)[C@@H]1C[C@@H]2CN1C(=O)[C@H](C(C)(C)C)NC(=O)OCC(C)(C)CCCCc1cccc3c1CN(C3)C(=O)O2)C(=O)NS(=O)(=O)C1CC1 measured_endpoint=AC50 data_value="29.7 µM"
molecule="O=C(O)COCCN1CCN(C(c2ccccc2)c2ccc(Cl)cc2)CC1 (stereo not drawn)" measured_endpoint=AC50 data_value="> 30 µM"
molecule=N[C@@H](Cc1ccccc1)C(=O)O measured_endpoint=AC50 data_value="> 30 µM"
molecule="CC1(CCN2CCCCC2)C(=O)CCc2ccccc21 (stereo not drawn) [NEPINALONE]" measured_endpoint=AC50 data_value="> 30 µM"
molecule=COc1cccc(C(=O)CCN[C@@H](C)[C@H](O)c2ccccc2)c1 measured_endpoint=AC50 data_value="> 30 µM"
molecule="CCNC(=O)/C=C(C)/C=C/C=C(C)/C=C/c1c(C)cc(OC)c(C)c1C [MOTRETINIDE]" measured_endpoint=AC50 data_value="> 30 µM"
